# test.system: human TLR8 (Homo sapiens, UniProt Q9NR97)
# Construct: expressed in transfected cells
# Sequence (Q9NR97 27-1041): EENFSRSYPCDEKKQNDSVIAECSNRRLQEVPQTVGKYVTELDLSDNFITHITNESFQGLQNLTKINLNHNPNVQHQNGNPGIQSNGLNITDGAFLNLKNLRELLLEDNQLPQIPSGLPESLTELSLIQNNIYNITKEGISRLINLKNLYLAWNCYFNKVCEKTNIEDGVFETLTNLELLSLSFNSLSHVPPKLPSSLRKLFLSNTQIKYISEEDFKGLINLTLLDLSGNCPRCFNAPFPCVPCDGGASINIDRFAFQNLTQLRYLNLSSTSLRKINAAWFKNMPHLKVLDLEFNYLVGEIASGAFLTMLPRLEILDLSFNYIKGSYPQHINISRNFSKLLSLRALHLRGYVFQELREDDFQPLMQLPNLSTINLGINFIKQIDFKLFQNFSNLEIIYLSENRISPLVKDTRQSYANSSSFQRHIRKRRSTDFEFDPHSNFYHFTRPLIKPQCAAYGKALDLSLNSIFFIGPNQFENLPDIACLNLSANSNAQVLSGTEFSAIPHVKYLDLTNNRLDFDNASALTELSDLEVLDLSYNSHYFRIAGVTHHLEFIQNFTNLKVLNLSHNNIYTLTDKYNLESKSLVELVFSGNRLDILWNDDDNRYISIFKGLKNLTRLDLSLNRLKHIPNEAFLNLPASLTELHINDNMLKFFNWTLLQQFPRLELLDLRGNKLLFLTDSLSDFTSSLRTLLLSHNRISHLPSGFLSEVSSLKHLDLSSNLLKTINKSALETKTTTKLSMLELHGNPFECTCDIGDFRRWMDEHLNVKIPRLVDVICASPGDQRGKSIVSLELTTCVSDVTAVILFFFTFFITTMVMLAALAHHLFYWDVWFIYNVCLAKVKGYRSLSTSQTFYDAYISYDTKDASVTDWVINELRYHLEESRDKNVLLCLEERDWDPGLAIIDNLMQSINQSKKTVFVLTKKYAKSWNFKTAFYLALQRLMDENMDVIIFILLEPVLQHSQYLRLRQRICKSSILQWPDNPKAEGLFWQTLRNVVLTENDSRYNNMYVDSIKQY
# assay.procedure: HEK-Blue hTLR8 SEAP reporter gene inhibition assay
# Type: cell-based
# measurement.conditions: hTLR8 HEK-Blue cells, TLR8 ligand 10 µM, 20 hours, SEAP by Quanti-blue; class symbols; read-out: HEK-Blue hTLR8 IC50
property.name: IC50

compound	test.system	property.name	measured
C[C@@H]1CN(c2ccc(C#N)n3ncc(F)c23)Cc2c3c(nn21)CC(N)CC3 (single isomer, unassigned) [Example I-20b]	human TLR8 (Homo sapiens, UniProt Q9NR97)	IC50	< 100 nM
C[C@@H]1CN(c2ccc(C#N)n3ncc(F)c23)Cc2c3c(nn21)CN(C[C@H](O)CO)[C@@H](C)C3	human TLR8 (Homo sapiens, UniProt Q9NR97)	IC50	> 100 nM
C[C@@H]1CN(c2ccc(C#N)n3ncc(F)c23)Cc2c3c(nn21)C[C@](C)(N1CCC(O)C1)CC3 (some centres unmarked)	human TLR8 (Homo sapiens, UniProt Q9NR97)	IC50	< 100 nM
C[C@@H]1CN(c2ccc(C#N)n3ncc(F)c23)Cc2c3c(nn21)CC(CN1CCOCC1)NC3 (some centres unmarked)	human TLR8 (Homo sapiens, UniProt Q9NR97)	IC50	> 100 nM
C[C@@H]1CN(c2ccc(C#N)c3ncccc23)Cc2c3c(nn21)CN(CC(N)=O)[C@@H](C)C3	human TLR8 (Homo sapiens, UniProt Q9NR97)	IC50	> 100 nM
C[C@@H]1CN(c2ccc(C#N)n3ncc(F)c23)Cc2c3c(nn21)CN(CC(=O)N1C[C@H](C)N[C@@H](C)C1)[C@@H](C)C3 [Example I-145]	human TLR8 (Homo sapiens, UniProt Q9NR97)	IC50	< 100 nM

Entry under test: CC(C)C1NCCc2c1nn1c2CN(c2ccc(C#N)n3ncc(F)c23)C[C@H]1C (some centres unmarked) . Its IC50 was < 100 nM

Entry under test: CC1Cc2c(nn3c2CN(c2ccc(C#N)n4ncc(F)c24)C[C@H]3C)C(C)N1 (single isomer, unassigned) [Example I-59b] . Its IC50 was < 100 nM

Entry under test: C[C@@H]1CN(c2ccc(C#N)n3ncc(F)c23)Cc2c3c(nn21)CN(CC(=O)N1CCN(C2CC2)CC1)[C@@H](C)C3 . Its IC50 was < 100 nM

Just for reference, patent EP4644396A1 is where these values come from.
